- Tested on: LNCaP
- assay-procedure: Anti-proliferative activity against human LNCAP cells measured after 96 hrs by MTT assay
- Type: functional
Reported GI50 values are given for each entry in this list.
Number only, in µM; omit the unit.

C[C@H]1[C@H](C)CC[C@]2(C)CC[C@]3(C)C(=CC(=O)[C@@H]4[C@@]5(C)C=C(C(F)(F)F)C(=O)[C@](C)(C(=O)N6CCNCC6)[C@@H]5CC[C@]43C)[C@H]12; 2.18

With those in mind, consider the next compound.
### Prompt Look up GI50 for this compound: COC(=O)[C@@]1(C)C(=O)C(C(F)(F)F)=C[C@]2(C)[C@H]3C(=O)C=C4[C@@H]5[C@@H](C)[C@H](C)CC[C@]5(C)CC[C@@]4(C)[C@]3(C)CC[C@@H]12
### Response 7.82
